System: C2C12
assayName: Cytotoxicity against mouse C2C12 cells assessed as reduction in cell viability at 0.3 to 10 uM by CCK8 assay
Format: cell-based
cond: c2c12, 10 µM
valueKind: Activity

Here are 4 compounds together with their reported answers.
- compound: "O=c1cc(-c2ccc(O)c(O)c2)oc2cc(O)c([C@@H]3O[C@H](CO[C@@H]4OC[C@@H](O)[C@H](O)[C@H]4O)[C@@H](O)[C@H](O)[C@H]3O)c(O)c12"
  systemTested: "C2C12"
  Activity: "Non-Toxic"
- compound: "C[C@@H]1O[C@@H](O[C@H]2[C@H](O[C@H]3CC[C@@]4(C)C(=CC[C@H]5[C@@H]6C[C@@H]7O[C@]8(CC[C@@](C)(CO[C@@H]9O[C@H](CO)[C@@H](O)[C@H](O)[C@H]9O)O8)[C@@H](C)[C@@H]7[C@@]6(C)CC[C@@H]54)C3)O[C@H](CO)[C@@H](O[C@@H]3O[C@H](CO)[C@@H](O)[C@H](O[C@@H]4O[C@H](CO)[C@@H](O)[C@H](O)[C@H]4O)[C@H]3O)[C@@H]2O)[C@H](O)[C@H](O)[C@H]1O"
  systemTested: "C2C12"
  Activity: "Non-Toxic"
- compound: "O=c1cc(-c2ccc(O)cc2)oc2cc(O)c([C@@H]3O[C@H](CO)[C@@H](O)[C@H](O)[C@H]3O[C@@H]3OC[C@H](O)[C@H](O)[C@H]3O)c(O)c12"
  systemTested: "C2C12"
  Activity: "Non-Toxic"
- compound: "COC1=CC23/C=C/C(=O)OC[C@@H]4O[C@H](O[C@@H]5CC(C(=O)O)=C[C@@H](OC(=O)/C=C/c6cc(OC)c(c2c6)OC3C[C@H]1O)[C@H]5O)[C@@H](O)[C@H](O)[C@H]4O (stereo not given in full)"
  systemTested: "C2C12"
  Activity: "Non-Toxic"

Okay, now this compound:
For record COc1cc(O)c2c(=O)cc(-c3ccc(O)cc3)oc2c1[C@@H]1O[C@H](CO)[C@@H](O)[C@H](O)[C@H]1O[C@@H]1O[C@@H](C)[C@H](O)[C@@H](O)[C@H]1O the listed Activity is Non-Toxic

All values here come from ChEMBL document CHEMBL4622908.
